- method: Human HepG2 cell viability assay in 384 well format
- Format: toxicity, cell-based
- Set-up: dose 125 nL, time 70.5 hour; concentration not given beside the values
- particulars: HepG2 cells, read-out: Inhibition
quantity-measured: cytotoxicity at 70.5 h (%)
Numbers only here, please. The scale is %.

According to the records, this molecule Cc1cccc(CN2CCOC3(CCCN(CC(=O)N(C)C)C3)C2)n1 (stereo not drawn) displays cytotoxicity at 70.5 h of -5.53

Entry "c1ccc(CN2CCCC2)c(CNc2cncc3nnnn23)c1" — recorded cytotoxicity at 70.5 h = -7.51

Entry "CC(C)[C@H]1CN(S(=O)(=O)c2cccnc2)C[C@@H]1N" , cytotoxicity at 70.5 h reported as 0.829
